target: 5-hydroxytryptamine receptor 5A (Homo sapiens)
Sequence (P47898 whole entry): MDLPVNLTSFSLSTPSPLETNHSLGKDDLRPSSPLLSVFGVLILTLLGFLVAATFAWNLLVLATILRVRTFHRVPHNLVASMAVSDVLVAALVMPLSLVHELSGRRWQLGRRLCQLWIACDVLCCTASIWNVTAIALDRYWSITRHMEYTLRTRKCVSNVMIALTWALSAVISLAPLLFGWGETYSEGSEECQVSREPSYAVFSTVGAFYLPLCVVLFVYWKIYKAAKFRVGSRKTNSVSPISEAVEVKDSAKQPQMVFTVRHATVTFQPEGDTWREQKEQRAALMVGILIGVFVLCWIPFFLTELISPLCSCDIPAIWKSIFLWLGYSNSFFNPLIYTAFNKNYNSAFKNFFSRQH
measurement_name: Ki (nM)
Express it in nM; write the number only.

Measured Ki of NC(N)=NC(=O)c1ccc2c(C(F)F)cnc(-c3c(F)cccc3F)c2c1 : 4.6
